target-of-assay: 5-hydroxytryptamine receptor 1A (Rattus norvegicus)
Sequence (P19327 whole entry): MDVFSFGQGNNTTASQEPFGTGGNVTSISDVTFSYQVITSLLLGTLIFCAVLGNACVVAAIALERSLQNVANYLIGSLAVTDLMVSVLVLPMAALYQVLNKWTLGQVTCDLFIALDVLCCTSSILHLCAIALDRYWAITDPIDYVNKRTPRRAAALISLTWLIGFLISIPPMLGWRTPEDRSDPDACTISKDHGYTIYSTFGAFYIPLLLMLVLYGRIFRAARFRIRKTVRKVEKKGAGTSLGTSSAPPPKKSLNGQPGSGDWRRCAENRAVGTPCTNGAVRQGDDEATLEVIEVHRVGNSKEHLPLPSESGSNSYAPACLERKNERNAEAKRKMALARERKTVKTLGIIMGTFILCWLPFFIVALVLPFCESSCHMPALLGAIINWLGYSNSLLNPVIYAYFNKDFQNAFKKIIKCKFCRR
Assay type: cell membranes, CHO-K1, Membrane
condition-label: read-out: IC50
Categorized via IC50: low (below 0.2 µM), moderate (0.2 µM to below 5 µM), high (5 µM or more)

1. CC(C)(C)NC(=O)[C@@H]1C[C@@H]2CCCC[C@@H]2CN1C[C@@H](O)[C@H](Cc1ccccc1)NC(=O)[C@H](CC(N)=O)NC(=O)c1ccc2ccccc2n1
moderate
2. O=C(CCCN1CC=C(n2c(=O)[nH]c3ccccc32)CC1)c1ccc(F)cc1
moderate
3. CC[C@@H](CO)NC(=O)[C@@H]1C=C2c3cccc4[nH]cc(c34)C[C@H]2N(C)C1
low
4. CN(C)CCCN1c2ccccc2Sc2ccccc21
high
5. CN(C)CCCN1c2ccccc2Sc2ccc(Cl)cc21
moderate
6. CC(C)(C)NCC(O)c1cc(Cl)c(N)c(Cl)c1 (configuration not stated)
moderate
7. CC(C)[C@H]1C(=O)N2CCC[C@H]2[C@]2(O)O[C@](NC(=O)[C@@H]3C=C4c5cccc6[nH]cc(c56)C[C@H]4N(C)C3)(C(C)C)C(=O)N12
low
8. CN1CCN(CCCN2c3ccccc3Sc3ccc(Cl)cc32)CC1
moderate
9. CC/C(=C(\c1ccccc1)c1ccc(OCCN(C)C)cc1)c1ccccc1
high
10. COc1nc(C)nc(Cl)c1NC1=NCCN1
moderate
11. Clc1cccc(Cl)c1NC1=NCCN1
high
12. CC(C)[C@@]1(NC(=O)[C@@H]2C[C@@H]3c4cccc5[nH]cc(c45)C[C@H]3N(C)C2)O[C@@]2(O)[C@@H]3CCCN3C(=O)[C@H](Cc3ccccc3)N2C1=O.CS(=O)(=O)O [DIHYDROERGOCRISTINE MESYLATE]
low
